B1: H2-Kb / E9 (parent)
chain 1: QQKVQQSPESLTVSEGAMASLNCTFSDRSSDNFRWYRQHSGKGLEVLVSIFSDGEKEEGSFTAHLNRASLHVFLHIREPQPSDSALYLCAVSRSSGSWQLIFGSGTQLTVMP
chain 2: NSGVVQSPRYIIKGKGERSILKCIPISGHLSVAWYQQTQGQELKFFIQHYDKMERDKGNLPSRFSVQQFDDYHSEMNMSALELEDSAVYFCASSRDSNNQAPLFGEGTRLSVL
chain 3: not shown
chain 4: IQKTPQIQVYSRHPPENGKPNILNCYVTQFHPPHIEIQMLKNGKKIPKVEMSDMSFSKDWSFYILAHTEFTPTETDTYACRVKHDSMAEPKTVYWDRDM
chain 5: SIINFEKL

Variants of: B1
Test: % of reporter cells activated (NFAT-GFP), raw; also: test concentration or dose not given here
Conditions: with E9; scale: % of reporter cells activated
QUANTITY_KIND: ratio to parent

(A) chain 5 E6A
(B) chain 5 I2F
Query: // select label with min value of measured ratio to parent from [ A , B ] Kindly state the label of the option you pick.
Result: B
(B: 1.02, A: 2.25)

(P) chain 5 K7E
(Q) chain 5 S1R
Query: # query: argmin of ratio to parent over P and Q Could you answer with the label of the item you picked?
Result: Q
(Q: 0.719, P: 2.1)

(I) chain 5 K7I
(II) chain 5 I3G
Query: Between I and II , which one shows the smaller ratio to parent number? In your reply, give the label of the chosen option.
Result: II
(II: 1.62, I: 2.54)

(P) chain 5 N4A
(Q) chain 5 I3N
(R) chain 5 K7S
Query: rank_up(items): orders items by reported ratio to parent in ascending numerical order. A ranking is expressed here by listing the labels in the requested order.
Result: Q, R, P

(P) chain 5 I2M
(Q) chain 5 I3Y
(R) chain 5 K7F
Query: Arrange items by their ratio to parent values in increasing order. Answer by writing out the labels in the requested order.
Result: R, P, Q

(P) chain 5 S1E
(Q) chain 5 L8D
Query: Hey, which is lower on measured ratio to parent, P or Q ? Refer to your chosen item by its label in the answer.
Result: Q
(Q: 0.605, P: 2.1)

(A) chain 5 K7G
(B) chain 5 F5W
Query: Task for the reader: decide whether A or B has the larger ratio to parent. Answer = label.
Result: A

(a) chain 5 S1I
(b) chain 5 E6G
Query: Given the listed items, does a or b have the lesser reported ratio to parent? Respond with the label that goes with your answer.
Result: b
